Give IC50 for every item shown.
targetOrTestSystem: JAK3 (Homo sapiens, UniProt P52333)
Construct: endogenous in cells
Sequence (P52333 1-1124): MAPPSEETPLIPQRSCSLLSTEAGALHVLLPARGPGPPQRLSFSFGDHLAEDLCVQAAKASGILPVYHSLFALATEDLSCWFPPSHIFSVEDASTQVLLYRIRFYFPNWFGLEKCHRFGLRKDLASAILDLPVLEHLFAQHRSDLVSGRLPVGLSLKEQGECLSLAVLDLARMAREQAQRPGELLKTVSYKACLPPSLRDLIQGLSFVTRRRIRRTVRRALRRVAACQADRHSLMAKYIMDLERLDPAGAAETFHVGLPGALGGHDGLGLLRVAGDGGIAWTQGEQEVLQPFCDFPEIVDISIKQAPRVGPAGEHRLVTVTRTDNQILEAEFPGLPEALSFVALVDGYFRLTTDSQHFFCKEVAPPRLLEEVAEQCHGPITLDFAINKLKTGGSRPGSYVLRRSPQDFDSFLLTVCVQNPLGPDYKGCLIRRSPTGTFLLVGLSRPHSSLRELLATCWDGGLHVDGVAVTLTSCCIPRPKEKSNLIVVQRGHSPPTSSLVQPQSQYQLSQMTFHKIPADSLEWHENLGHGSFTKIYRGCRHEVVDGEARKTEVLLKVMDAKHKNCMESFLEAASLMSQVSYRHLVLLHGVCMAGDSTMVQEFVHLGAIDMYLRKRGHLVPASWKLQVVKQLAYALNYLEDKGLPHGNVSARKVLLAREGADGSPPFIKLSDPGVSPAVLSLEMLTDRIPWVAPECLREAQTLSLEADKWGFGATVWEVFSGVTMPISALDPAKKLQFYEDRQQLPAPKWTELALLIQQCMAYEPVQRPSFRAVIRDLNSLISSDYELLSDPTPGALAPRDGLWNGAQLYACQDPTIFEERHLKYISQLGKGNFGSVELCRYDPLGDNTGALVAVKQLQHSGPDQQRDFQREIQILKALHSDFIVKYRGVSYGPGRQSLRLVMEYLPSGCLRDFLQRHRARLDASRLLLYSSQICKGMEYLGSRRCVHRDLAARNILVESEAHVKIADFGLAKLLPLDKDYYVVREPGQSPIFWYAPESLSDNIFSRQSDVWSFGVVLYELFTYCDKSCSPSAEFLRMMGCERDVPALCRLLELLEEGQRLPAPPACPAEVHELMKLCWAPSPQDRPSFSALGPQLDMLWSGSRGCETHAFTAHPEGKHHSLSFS
assayOverview: Kinobeads assay, JAK3
testContext: mixed Molt4/Ramos lysate, read-out: Inhibition values (IC50) JAK3

Exam item: Name the recorded IC50 of NC(=O)Cn1cc(Nc2ncc(Cl)c(NC(CO)c3cc(F)ccc3F)n2)cn1 (stereo not drawn) , assay system JAK3 (Homo sapiens, UniProt P52333).
Marked response: < 100 nM

Exam item: Name the recorded IC50 of Cn1cc(Nc2ncc(Cl)c(N[C@H](C(=O)NC3CCCC3)c3ccccc3)n2)cn1 , assay system JAK3 (Homo sapiens, UniProt P52333).
Marked response: 100 to 1000 nM

Exam item: Name the recorded IC50 of CC(C)(O)Cn1cc(Nc2ncc(Cl)c(NC(CO)c3c(F)cccc3F)n2)cn1 (stereo not drawn) , assay system JAK3 (Homo sapiens, UniProt P52333).
Marked response: < 100 nM

Exam item: Name the recorded IC50 of CC(C)n1cc(Nc2ncc(Cl)c(N[C@H](CO)c3cccnc3)n2)cn1 , assay system JAK3 (Homo sapiens, UniProt P52333).
Marked response: < 100 nM

Exam item: Name the recorded IC50 of CN(C)CCNC(=O)Cn1cc(Nc2ncc(Cl)c(N[C@H](CO)c3ccccc3)n2)cn1 , assay system JAK3 (Homo sapiens, UniProt P52333).
Marked response: < 100 nM

Exam item: Name the recorded IC50 of OCCn1ccc(Nc2ncc(Cl)c(NC(CO)c3cccc(F)c3)n2)n1 (stereo not drawn) , assay system JAK3 (Homo sapiens, UniProt P52333).
Marked response: 100 to 1000 nM

Exam item: Name the recorded IC50 of CNC(=O)Cn1cc(Nc2ncc(Cl)c(NC(CO)c3ccccc3Cl)n2)cn1 (stereo not drawn) , assay system JAK3 (Homo sapiens, UniProt P52333).
Marked response: < 100 nM

Exam item: Name the recorded IC50 of Cn1cc(Nc2ncc(Cl)c(NC(CO)c3cccc(-c4cnn(C)c4)c3)n2)cn1 (stereo not drawn) , assay system JAK3 (Homo sapiens, UniProt P52333).
Marked response: 100 to 1000 nM

Exam item: Name the recorded IC50 of COc1ccccc1[C@@H](CO)Nc1nc(Nc2cnn(C)c2)ncc1Cl , assay system JAK3 (Homo sapiens, UniProt P52333).
Marked response: < 100 nM

Exam item: Name the recorded IC50 of CNC(=O)[C@@H](Nc1nc(Nc2cnn(C)c2)ncc1Cl)c1ccccc1 , assay system JAK3 (Homo sapiens, UniProt P52333).
Marked response: 100 to 1000 nM

Exam item: Name the recorded IC50 of OCCn1cc(Nc2ncc(Cl)c(NC(CO)c3ccccc3F)n2)cn1 (stereo not drawn) , assay system JAK3 (Homo sapiens, UniProt P52333).
Marked response: < 100 nM

Exam item: Name the recorded IC50 of CNC(=O)Cn1cc(Nc2ncc(Cl)c(N[C@H](CO)c3ccccc3)n2)cn1 , assay system JAK3 (Homo sapiens, UniProt P52333).
Marked response: < 100 nM

Exam item: Name the recorded IC50 of CNC(=O)Cn1cc(Nc2ncc(F)c(N[C@H](CO)c3ccccc3)n2)cn1 , assay system JAK3 (Homo sapiens, UniProt P52333).
Marked response: < 100 nM

Exam item: Name the recorded IC50 of COC(=O)C(Nc1nc(Nc2cnn(CCO)c2)ncc1Cl)c1ccccc1 (stereo not drawn) , assay system JAK3 (Homo sapiens, UniProt P52333).
Marked response: 100 to 1000 nM

Exam item: Name the recorded IC50 of OCCn1cc(Nc2ncc(Cl)c(N[C@H](CO)c3cc(F)cc(F)c3)n2)cn1 , assay system JAK3 (Homo sapiens, UniProt P52333).
Marked response: < 100 nM

Exam item: Name the recorded IC50 of CCNC(=O)[C@@H](Nc1nc(Nc2cnn(C)c2)ncc1Cl)c1ccccc1 , assay system JAK3 (Homo sapiens, UniProt P52333).
Marked response: < 100 nM

Exam item: Name the recorded IC50 of CC(C)(C(N)=O)n1cc(Nc2ncc(Cl)c(N[C@H](CO)c3ccccc3F)n2)cn1 , assay system JAK3 (Homo sapiens, UniProt P52333).
Marked response: < 100 nM

Exam item: Name the recorded IC50 of OCCn1cc(Nc2ncc(Cl)c(N[C@H](CO)c3cccnc3)n2)cn1 , assay system JAK3 (Homo sapiens, UniProt P52333).
Marked response: < 100 nM
